I'd be grateful if you could share measured apparent KD of MS2 coat protein for these entries.
# System: MS2 coat protein
# experiment: apparent KD of MS2 coat protein; higher = weaker reporter binding
# testContext: Eterna round: R107; input ligand: theophylline 20 uM
API: value field is a number in nM; no unit string.

MS2 coat protein data for GGCACCAGGAGAAGGAGCGUGAAGACAUGAGGAUCACCCAUGUAGAGGCCCGGACCGGGUUCGCAGGUAGGUCGCUCCUGGUGCC [#1 Same State - Arginine B Attempt #15 (HarryS)] ; its apparent KD of MS2 coat protein: 17.9

MS2 coat protein data for UCGCUCUGGGUGAAUUCCGGAGAUGUGGAAGGAGCGGACGAAAGUCCAGGUAGGUCGCCAUCGGACAUGAGGAUCACCCAUGUAC [Same State - Arginine A (Freestyle 22)] ; its apparent KD of MS2 coat protein: 99.8

MS2 coat protein data for CGGACAUGAGGAUCACCCAUGUACACUGAAGGAGCGUCGAGAACGACAGGUAGGUCGCAGGUUGAGGAAGGUGAUGCUCAAGAAG [Exclusion Arginine A GF4] ; its apparent KD of MS2 coat protein: 71.9

MS2 coat protein data for GUACGAGUUGAAUGUGAGACUGGCGUGGAAGGAGCGCACGGAGGUGCAGGUAGGUCGCCACAUGAGGAUCACCCAUGUCGGCUAG [XARG-A 23] ; its apparent KD of MS2 coat protein: 27.3

MS2 coat protein data for AAUCGUAAGGCGGCCGCCACUACACAUGAGGAUCACCCAUGUCUCGCGGGCUUGCGUUGGGAUUGUAGGACCGGGCCAGUAAUAA [Exclusion - Tryptophan B (Freestyle 12)] ; its apparent KD of MS2 coat protein: 37.9

###

# Tested on: K4 kissing-loop RNA reporter;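 further: bound reporter read as fluorescence of individual clusters on recovered sequencing chips by microscopy, with normalized cluster intensities fitted with a binding model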
# experiment: apparent KD of K4 kissing-loop reporter; higher = weaker reporter binding
# testContext: Eterna round: R107; input ligand: FMN 200 uM
parameterMeasured: apparent KD of K4 kissing-loop reporter

Looking up CCAGGAUGAUGAGGAUGAUGAAUUACUGAAGGAGCGCAUAUGGUUGCAGGUAGGUCGCGGUGAACAAGUAUAGUGAUGUUAUGCC [SSArgA.W] , I see its apparent KD of K4 kissing-loop reporter listed as 575 nM

Looking up AGAGUUAUGCGAGGAUAUGCAGUUAGUACUCAAAGAGUACUAACAGCAGAGUGAUGUUCUGUGAAAGCAGAAGGUGCAUAACUCA [Omei KL FMN B SS B v7] , I see its apparent KD of K4 kissing-loop reporter listed as 153 nM

Looking up ACCUACCAUUAGUGAUGUUAAUGGACGGAAGGAGCGCGGAUAUCCGCAGGUAGGUCGCCGAAGGCUAGACAUUGUCUAGCCAUUA [AK1.2 SS Arginine A] , I see its apparent KD of K4 kissing-loop reporter listed as 225 nM

Looking up AUAGACUUGCAGUGAUGUUGCAAGUGAGACUAGGAUAUCAGGAAGCUGAGAAGGAGUCAUCUCCUUCAGACAUCACUAUGAAGGA [whbob_SS_FMNA__2th180] , I see its apparent KD of K4 kissing-loop reporter listed as 270 nM

Looking up AGGUGAGACUGAAGGAGCGAUCGCGCCAGUGAUGUUGGUGAGCAUGACAAAGUCAUGCACGAUCAGGUAGGUCGCAGUCUUACUC [Omei KL Arginine B SS B v2] , I see its apparent KD of K4 kissing-loop reporter listed as 199 nM

Looking up ACACUAUCGUCAUAGACGGUAGUGAAAAGUGAGGAUAUGAGUGAUGUUAGAAGGCACUAAGACUGUAUCGAAUAGAUACAGUCAA [FmnA 4 #K4BetweenAptamer #OpenEnded] , I see its apparent KD of K4 kissing-loop reporter listed as 803 nM

Looking up CUUCUUCUUCCAAUCUCGGCCAACACGGGACGAGGACCGGUACGGCCGCCACUCGUGCAGUGAUGUUGCACGAUGGUGACGGAGA [Engebiisso] , I see its apparent KD of K4 kissing-loop reporter listed as 98.5 nM

Looking up UGUGUUUACCUGACUCAGUGAUGUUGAGAAGGAGCGUGCAAACGCACAGGUAGGUCGCUCAACCUAAAUUCAGGUGAGCACUAAA , I see its apparent KD of K4 kissing-loop reporter listed as 568 nM

Looking up CAUACGCAUGGAGGAUAUGGGAUUUCUCAUAUUAACCUGUAUCAGGUAUCUCAGUGAUGUUGAGACUCAGAAGGCCAUGUGUAUG [Ex FMN B 25] , I see its apparent KD of K4 kissing-loop reporter listed as 494 nM

Looking up UGAUACCAGACGGCCGCCACUUCCGUAAGUCAAAGACUUACCAAGGGAAUCGUCCAGUGAUGUUGGAGGACCGGGUCUGGUAUCU [FiskerMod 6 - Jieux - Exclusion - Tryptophan B] , I see its apparent KD of K4 kissing-loop reporter listed as 960 nM

Looking up AGUCGAGAUUAUAGACUCGACAGGUCAGAAGGAGCGACGAAUUCGUCAGGUAGGUCGCUGACAUAGCAGUGAUGUUGCUAUACGG [Arg A SS t1] , I see its apparent KD of K4 kissing-loop reporter listed as 149 nM

Looking up CACCGCAACUGAAGGAGCGCGCCAGUGAUGUUGGACGGCUUUGUCAAGGAAACUGCACCGGUGCAGGUAGGUCGCAGUUCGCGGC [Ededisa] , I see its apparent KD of K4 kissing-loop reporter listed as 319 nM
